Tested on: Rattus norvegicus
Assay: Diuretic activity in normotensive Wistar rat assessed as urinary potassium excretion at 10 mg/kg, po administered via gavage after 8 hrs (reference value: 22.39 to 24.21 mmol/L)
Assay type: ADME, organism-based
Conditions: in vivo
PROPERTY LABEL: Activity

NS(=O)(=O)c1cc2c(cc1Cl)NCNS2(=O)=O [HYDROCHLOROTHIAZIDE] | 41 to 44.8 mmol/L

* * *

System: Rattus norvegicus
Assay: Diuretic activity in normotensive Wistar rat assessed as urinary potassium excretion at 0.1 mg/kg, po administered via gavage after 8 hrs (reference value: 22.39 to 24.21 mmol/L)
Assay type: ADME, organism-based
Details: in vivo
PROPERTY LABEL: Activity

C[C@@H]1O[C@@H](Oc2c(-c3ccc(O)cc3)oc3cc(O)cc(O)c3c2=O)[C@H](O)[C@H](O)[C@H]1O [AFZELIN] | 24.2 to 24.7 mmol/L
